target: T1, CRD1; test: ELISA, coated CD137-Fc protein 2 µg/mL, antibody 10 or 5 µg/mL; absorbance 620 nm divided by that of the uncoated well
T1 construct: also called fragmented human CD137-Fc fusion protein CRD1
T1 sequence (chain, as listed by the source limits assumed): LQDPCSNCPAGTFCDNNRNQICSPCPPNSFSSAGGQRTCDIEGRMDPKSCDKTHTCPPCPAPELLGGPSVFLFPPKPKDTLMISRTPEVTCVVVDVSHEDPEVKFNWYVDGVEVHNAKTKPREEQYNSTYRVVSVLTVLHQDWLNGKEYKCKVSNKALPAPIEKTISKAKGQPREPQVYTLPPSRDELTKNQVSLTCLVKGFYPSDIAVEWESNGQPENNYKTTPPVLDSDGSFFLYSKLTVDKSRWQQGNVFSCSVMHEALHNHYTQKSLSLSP
Can you tell me Ratio with respect to Non-Coating for the items I'm about to list?

Give measured Ratio with respect to Non-Coating for every item shown.
1. R7 (antibody, V domains shown, Synthetic library clone; Fab on phage in the phage ELISA) VH: QVQLLESGGGLVQPGGSLRLSCAASGFTFSSYAMSWVRQAPGKGLEWVSAISGSGGSTYYADSVKGRFTISRDNSKNTLYLQMNSLRAEDTAVYYCARDRAMYHPSFNYWGQGTLVTVSS VL: DIQMTQSPSSLSASVGDRVTITCRASQSISSYLNWYQQKPGKAPKLLIYAASSLQSGVPSRFSGSGSGTDFTLTISSLQPEDFATYYCQQFNSYPLTFGGGTKVEIK
2. R2 (antibody, V domains shown, Naive library clone; Fab on phage in the phage ELISA) VH: EVQLQESGPGLVKPSETLSLTCTVSGGSISSSSYYWGWIRQPPGKGLEWIGSIHYTGSTYYNPSLKSRVTISVDTSKNQFSLKLSSVTAADTAVYYCARLNPSIAARPGAFDIWGQGTMVTVSS VL: QSVLTQPPSVSAAPGQKVTISCSGSSSNIANNFVSWFQQLPGTAPKLLIYDNNKRPSGIPDRFSGSKSGTSATLGITGLQTGDEADYYCGTWDRSLSAGVFGGGTKVTVL
3. B (antibody, human IgG1, kappa, V domains shown, also called Control B) VH: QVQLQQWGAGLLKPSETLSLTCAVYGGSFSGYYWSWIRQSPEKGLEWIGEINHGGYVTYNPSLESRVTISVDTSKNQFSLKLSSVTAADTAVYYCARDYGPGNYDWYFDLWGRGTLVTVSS VL: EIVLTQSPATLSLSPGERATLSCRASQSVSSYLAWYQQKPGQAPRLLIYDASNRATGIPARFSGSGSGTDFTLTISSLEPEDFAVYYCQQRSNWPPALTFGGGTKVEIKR

[1.4, 1.1, 35.7]
